- study_system: rat MCH-1 (Rattus norvegicus)
- measurement_protocol: Radioligand binding assay at cloned rat MCH1 receptor ([3H] Compound A)
- Parameters: host or cells: Peak rapid 293 (Peakr293) cells, transient calcium phosphate transfection, membranes
- study_conditions: cloned rat MCH1 receptor; 0.08 nM [3H] Compound A; Peakr293 cell membranes; read-out: Ki (nM) rMCH1
reported_endpoint: Ki (nM)

Known results for compounds:
CCC(=O)Nc1cccc(C2CCN(Cc3cn(-c4cccc(Cl)c4)c4ccccc34)CC2)c1 :: 28
CC(C)C(=O)Nc1cccc(C2CCN(CCCCC(=O)c3ccc(I)cc3)CC2)c1 :: 21.9
CC(C)C(=O)Nc1cccc(C2CCN(CCCCCC(Oc3ccc(Br)cc3)c3ccc(Cl)cc3)CC2)c1 (centres unmarked) :: 5.9
COc1ccc(C(=O)CCCN2CCC(c3cccc(NC(=O)C(C)C)c3)CC2)cc1 :: 38.8

a: CCC(=O)Nc1cccc(C2CCN(CCCC(=O)c3ccc(Oc4ccccc4)cc3)CC2)c1
b: COc1cccc2c(CN3CCC(c4cccc(NC(=O)C(C)C)c4)CC3)cn(-c3ccccc3)c12
c: CC(C)C(=O)Nc1cccc(C2CCN(CCCCC(=O)c3ccccc3Br)CC2)c1
d: CCn1c2ccccc2c2cc(CN3CCC(c4cccc(N5CCCC5=O)c4)CC3)ccc21
Please order the records by their reported Ki, lowest number first. Sort the labels as requested; that list is your answer. b, d, c, a

* * *

- study_system: rat MCH-1 (Rattus norvegicus, UniProt P97639)
- Sequence (P97639 whole entry): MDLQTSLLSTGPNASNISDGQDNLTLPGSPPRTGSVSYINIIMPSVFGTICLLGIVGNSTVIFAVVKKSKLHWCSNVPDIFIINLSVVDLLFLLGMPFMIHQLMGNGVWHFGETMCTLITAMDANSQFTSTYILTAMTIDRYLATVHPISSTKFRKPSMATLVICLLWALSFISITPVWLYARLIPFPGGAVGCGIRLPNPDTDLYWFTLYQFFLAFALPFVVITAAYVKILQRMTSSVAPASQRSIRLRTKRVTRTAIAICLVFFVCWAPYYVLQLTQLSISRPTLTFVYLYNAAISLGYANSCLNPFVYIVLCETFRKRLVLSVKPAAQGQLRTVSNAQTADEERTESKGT
- measurement_protocol: Radioligand binding assay at cloned rat MCH1 receptor ([3H] Compound A)
- Set-up: host or cells: Peak rapid 293 (Peakr293) cells, transient calcium phosphate transfection, membranes
- study_conditions: cloned rat MCH1 receptor; 0.08 nM [3H] Compound A; Peakr293 cell membranes; read-out: Ki (nM) rMCH1
reported_endpoint: Ki (nM)

CC(C)C(=O)Nc1cccc(C2CCN(CC[C@H](NC(=O)Nc3ccc(Cl)c(Cl)c3)c3ccccc3)CC2)c1 :: 65.1
CCC(=O)Nc1cccc(C2CCN(CCCC(=O)c3ccc(C(C)C)cc3)CC2)c1 :: 172
CC(C)C(=O)Nc1cccc(C2CCN(CCCc3c(-c4ccc(Br)cc4)[nH]c4ccc(OC(F)(F)F)cc34)CC2)c1 :: 49.2
CC(C)C(=O)Nc1cccc(C2CCN(CCc3cn(C)c4ccccc34)CC2)c1 :: 263
COc1ccc(OC(CCCCCN2CCC(c3cccc(NC(=O)C(C)C)c3)CC2)c2ccccc2)cc1 (stereo not drawn) :: 33.7

P: CC(C)C(=O)Nc1cccc(C2CCN(CCCNC(=O)NCc3ccccc3)CC2)c1
Q: Cc1ccccc1-c1ccc2c(CN3CCC(c4cccc(NC(=O)C(C)C)c4)CC3)c[nH]c2c1
R: CC(C)C(=O)Nc1cccc(C2CCN(Cc3c(-c4ccccc4)n(C)c4ccccc34)CC2)c1
Parameters: sort_field (Ki), sort_dir (desc). Sort the labels as requested; that list is your answer. P, R, Q

* * *

- study_system: UniProtKB P97639
- measurement_protocol: Radioligand binding assay at cloned rat MCH1 receptor ([3H] Compound A)
- Set-up: host or cells: Peak rapid 293 (Peakr293) cells, transient calcium phosphate transfection, membranes
- study_conditions: cloned rat MCH1 receptor, membranes from Peakr293 cells, 0.08 nM [3H] Compound A; read-out: Ki (nM) rMCH1
reported_endpoint: Ki (nM)

Known results for molecules:
Cc1onc(-c2c(Cl)cccc2Cl)c1C(=O)OCCCCN1CCC(c2cccc(NC(=O)C(C)C)c2)CC1 :: 15.8
CC(C)C(=O)Nc1cccc(C2CCN(CCC(Oc3ccc(Cl)cc3)c3ccc(Cl)cc3)CC2)c1 (stereo not shown) :: 3
CC(C)C(=O)Nc1cccc(C2CCN(Cc3ccc(-c4cc(C(F)(F)F)n(C)n4)s3)CC2)c1 :: 65.9

a: CC(C)C(=O)Nc1cccc(C2CCN(CC[C@H](NC(=O)c3cccc4ccccc34)c3ccccc3)CC2)c1
b: Cc1onc(-c2c(F)cccc2Cl)c1C(=O)N[C@@H](CCN1CCC(c2cccc(NC(=O)C(C)C)c2)CC1)c1ccccc1
Lab notebook, comparison: a versus b , higher Ki goes to which? Answer = label. b

a: CC(C)C(=O)Nc1cccc(C2CCN(CCC(Oc3ccc(Cl)cc3)c3ccc4c(c3)CCC4)CC2)c1 (stereo not shown)
b: CC(C)C(=O)Nc1cccc(C2CCN(CCCCC(O)c3ccccc3)CC2)c1 (stereo not shown)
Kindly identify the item with the lower Ki figure among these two: a and b Answer = label. a
(a: 7 nM, b: 27.6 nM)

A: CC(C)C(=O)Nc1cccc(C2CCN(C[C@H](Oc3ccc(F)cc3)c3ccccc3)CC2)c1
B: CC(C)C(=O)Nc1cccc(C2CCN(Cc3ccc(-c4cc(C(F)(F)F)nn4C)s3)CC2)c1
Kindly identify the item with the lower Ki figure among these two: A and B Answer = label. B
(B: 239 nM, A: 907 nM)
